- experiment: NCI Yeast Anticancer Drug Screen. Data for the bub3 strain (AID 167)
- measurement_context: S. cerevisiae bub3 mutant strain; at 50.0 µM unless noted
Compounds without any hit were thinned out: in the full panel of roughly 79,000, 15% have a hit. Active and inactive are the calls of the source. No stated cut-off is given here; in the data, active means growth inhibition above about 70%; inactive means the rest.
// allowed return values: Y for active, N for inactive

1. CCCCCOC1OC(=O)C(Cl)=C1Cl (configuration not stated); N
2. O=C(O)Cc1ccc(C(=O)O)cc1; N
3. Nc1nc(CC2(O)CCCCC2)cc(-c2ccccc2)n1; N
4. COCNC(=S)c1ccc(C(N)=O)nc1C(=O)NC(C)(C)C; N

Outcome? O=C1NCC2(CCNCC2)N1 N

Outcome? N=c1oc2ccc(Cl)cc2cc1C(=O)Nc1ccccc1 N

Outcome? Cc1ncc(CN=Cc2ccc(Cl)cc2)c(N)n1 N

* * *

- experiment: NCI Yeast Anticancer Drug Screen. Data for the cln2 rad14 strain (AID 165);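 further: 0% = growth equal to vehicle treated cultures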
- measurement_context: S. cerevisiae cln2 rad14 strain, active compounds read high; at 50.0 µM unless noted
Compounds without any hit were thinned out: in the full panel of roughly 79,000, 15% have a hit.
measured_attribute: growth inhibition (%)
One number for each entry, in %.

Example molecules with recorded growth inhibition:
1. Cc1ccc2[nH]c(C(=O)O)cc2c1; 10.3
2. COc1ccc(N2C(=O)C/C(=C/c3ccc(C(C)C)cc3)C2=O)cc1; -60
3. CC1(C)OCC(C2OC3OC(C)(C)OC3C2N)O1 (stereo not drawn); -2.95
4. CCOC(=O)CC(c1ccccc1)C(C)(C(=O)OCC)C(=O)OCC (stereo not drawn); 35.9
5. COc1ccccc1-n1c(=O)c(N=Nc2ccc(Br)cc2)c(O)n(-c2ccccc2C)c1=S; -11.1
6. CCOC(=O)c1c(C)[nH]c(C(=O)CCN(C)C)c1C; -33.9

State the recorded growth inhibition for every item in the following list.
1. COC(=O)[C@H](Cc1c[nH]c2ccccc12)NC(=O)OCC1OC(n2cc(C)c(=O)[nH]c2=O)CC1N=[N+]=[N-] (stereo partly drawn)
2. CCOC(=O)CC(=O)Cc1ccccc1
3. Fc1ccccc1C1SCc2nc3cc4ccccc4cc3n21 (stereo not drawn)
4. CCC1([N+](C)(C)C)CSC1C (stereo not drawn)

1. 9.3
2. -43.8
3. -1.45
4. -26.6

* * *

- experiment: NCI Yeast Anticancer Drug Screen. Data for the sgs1 mgt1 strain (AID 161);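 further: 0% = growth of cultures given vehicle only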
- measurement_context: S. cerevisiae sgs1 mgt1 strain, active compounds read high; at 50.0 µM unless noted
About 79,000 compounds went through this panel and 15% of them were active in at least one assay; those are over-represented in the sample as a whole. Where a SMILES comes first, the peptide text is derived from it. The star is where a group is joined. Boc = CC(C)(C)OC(=O)*
measured_attribute: growth inhibition (%)
Answers are plain numbers, in %.

Example molecules with recorded growth inhibition:
1) CN(C)c1ccc(C2NC(=S)NC3=C2CCCC3)cc1 (stereo unspecified); 5
2) C=CCN1C(=O)CS/C1=N/NC(=O)C(O)(c1ccccc1)c1ccccc1; 6.1
3) CC(C)(C)COB(OCC(C)(C)C)OCC(C)(C)C; 3.55
4) C=C1N(c2cc3ccccc3o2)C(=O)OC12CCCCC2; -8

State the recorded growth inhibition for every item in the following list.
1. CC(=O)CSc1c(-c2ccccc2)c(=O)n(-c2ccccc2)c(=S)n1-c1ccccc1
2. Cc1nc2ccc(Br)cc2c(=O)n1-c1ccc(-c2n[nH]c(=S)n2-c2ccccc2)cc1
3. CC(C)Cc1c(C#N)c(C#N)c(N)n1Cc1ccccc1
4. COC(=O)C(Cc1c[nH]c2ccccc12)NC(=O)C(Cc1c[nH]c2ccccc12)NC(=O)C(Cc1c[nH]c2ccccc12)NC(=O)C(Cc1c[nH]c2ccccc12)NC(=O)C(Cc1c[nH]c2ccccc12)NC(=O)C(Cc1c[nH]c2ccccc12)NC(=O)OC(C)(C)C (stereo unspecified) (Boc-WWWWWW-OMe; configuration not given here)
5. Fc1cccc(C(Nc2nncs2)Nc2nncs2)c1F
6. O=Cc1ccc(N2CCOCC2)cc1
7. CSc1ccc(C(C)=O)cc1
8. COc1cc([N+](=O)[O-])c(S(=O)(=O)O)cc1NS(=O)(=O)c1ccc(C)cc1

1. -13.2
2. 13.4
3. -29
4. -18.4
5. 29.8
6. -11.2
7. 5.95
8. 22

State the recorded growth inhibition for every item in the following list.
1. O=C(O)/C=C/c1cccc(F)c1
2. O=C(NO)/C(CC(=O)c1cccc(O)c1)=N\O
3. O=C1CSC(c2c[nH]c3ccccc23)N1c1ccc(Cl)cc1 (stereo unspecified)
4. O=C(CCCN1CCC2(CC1)CC(=O)N(N1CCOCC1)C2=O)c1ccc(F)cc1
5. C1=CC(=CN2CCc3ccccc3C2)C=C1
6. COc1ccc(-c2oc3c(CC(=O)O)cccc3c(=O)c2OC)cc1
7. Cc1nc2c(=O)[nH]c(=O)[nH]c2s1

1: -4.9; 2: -7.35; 3: -46.2; 4: 2.75; 5: 3.05; 6: -25.3; 7: -4.2

State the recorded growth inhibition for every item in the following list.
1. CC(=O)Nc1ccc2ccccc2c1[N+](=O)[O-]
2. O=C(OCc1ccccc1CN1CCCCC1)c1cccc(Cl)c1
3. Cc1cc(C)[nH]c(=O)c1
4. O=S1(=O)C2C=CC1C(Br)C(Br)CC2 (stereo unspecified)

1: -17.4; 2: -6.3; 3: -2.75; 4: 26.8
